List of protein stability index values.
- System: Saccharomyces cerevisiae;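 note: PSI is a weighted mean of sequencing reads over stability bins, variants kept only with over 10 reads, mCherry proximal and sfGFP distal, peptide attached via GGGS linker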
- protocol-details: protein stability index of tFT-peptide fusion (C-terminal peptide) (PSI (0-1 scale)); higher = more stable (slower turnover)
- details: genetic background: wild type; temperature: 30 C

# biopolymer-sequence, protein stability index
records = [
    ("VVIFYSSESRRR", 0.724),
    ("GRGEKKREVDGG", 0.69),
    ("PPGLPLSPCPPP", 0.685),
    ("GACCRHERIREE", 0.761),
    ("AFFRLSLPGARA", 0.654),
    ("LTPRPLPRLSPP", 0.705),
    ("LRVLSVVRLSVW", 0.468),
    ("HNSRTVPISVSV", 0.528),
    ("KKKNKEQTKKTK", 0.719),
    ("FSPSHMLRIFCY", 0.294),
    ("ARFVAGLTKVDV", 0.65),
    ("SRAVTDRGWSPR", 0.68),
    ("AERPVLIIIEFG", 0.417),
    ("GWQLWGFCLSGP", 0.637),
    ("SLRICACMTVSW", 0.353),
    ("ATGHQMTMYDNR", 0.708),
    ("TPHRVGRAAATR", 0.675),
    ("CLVIDDPFLVPF", 0.699),
    ("LLLLRCLWISHA", 0.244),
    ("AAPSPRPTPLPS", 0.698),
    ("YASLSGSRYRPG", 0.62),
    ("ELSPLSYRNRTA", 0.684),
    ("VGWAGHVWFWWG", 0.683),
    ("VVARLERAGLGG", 0.766),
    ("SPLPPPPPVPLP", 0.652),
    ("PSRRPLPHPPPP", 0.654),
    ("CRSRRIVGPDSR", 0.669),
    ("PPPPPPPPLPAP", 0.664),
    ("GTLRLLYLKTSK", 0.651),
    ("VPRLARTRPKHA", 0.641),
    ("GRLGSSRIVGKS", 0.692),
    ("ISRATMKARARG", 0.652),
    ("GLCCFWSYRASR", 0.687),
    ("RQTNEHNNQNER", 0.741),
    ("SNIEKKKTIKRK", 0.693),
    ("SAFLSFPFLSPF", 0.705),
]
